Species: Rattus norvegicus
Test: Displacement of [125I]-triiodothyronine from thyroid hormone receptor in rat liver membrane homogenates assessed as relative T3 displacement incubated for 18 hrs by scintillation counting method relative to control
Type: cell membranes
Measured relative binding affinity (RBA) accompanies every entry in the list below.
recorded_endpoint: relative binding affinity (RBA)

# molecule, recorded_endpoint, result
rows = [
    ("Nc1ccc(/C=C/c2cc(Br)c(O)c(Br)c2)cc1", "relative binding affinity (RBA)", 0),
    ("Cc1cc(/C=C/c2c(Cl)cccc2Cl)cc(C)c1O", "relative binding affinity (RBA)", 0.41),
    ("Cc1cc(Oc2cccc3oc4ccccc4c23)cc(C)c1O", "relative binding affinity (RBA)", 0),
    ("Oc1c(Br)cc(CCc2c(F)cccc2F)cc1Br", "relative binding affinity (RBA)", 0.61),
    ("Oc1c(Br)cc(CCc2c(Cl)cccc2Cl)cc1Br", "relative binding affinity (RBA)", 0.45),
    ("Oc1c(Br)cc(CCc2ccccc2C(F)(F)F)cc1Br", "relative binding affinity (RBA)", 0.08),
    ("Brc1cc(Br)cc(-c2cccc3oc4ccccc4c23)c1", "relative binding affinity (RBA)", 0),
    ("COc1ccccc1NC(=O)Nc1cc(Br)c(O)c(Br)c1", "relative binding affinity (RBA)", 0.14),
    ("O=[N+]([O-])c1ccccc1CCc1cc(Br)c(O)c(Br)c1", "relative binding affinity (RBA)", 0.03),
    ("COc1cccc(OC)c1/C=C/c1cc(Br)c(O)c(Br)c1", "relative binding affinity (RBA)", 0),
    ("Oc1c(Br)cc(-c2cccc3oc4ccccc4c23)cc1Br", "relative binding affinity (RBA)", 0.36),
    ("Cc1cc(-c2nc3c([N+](=O)[O-])cccc3o2)cc(C)c1O", "relative binding affinity (RBA)", 0.16),
]

---

Species: Rattus norvegicus
Test: Displacement of [125I]-triiodothyronine from thyroid hormone receptor in rat liver membrane homogenates incubated for 18 hrs by scintillation counting method
Assay type: cell membranes
Set-up: concentration or dose not given beside the values
Settings: concentration not given here

# molecule, inhibition [%]
measured = [
    ("Oc1c(Br)cc(Oc2cccc3oc4ccccc4c23)cc1Br", 94),
    ("Oc1c(Br)cc(-c2nc3cccc(Cl)c3o2)cc1Br", 62),
    ("Oc1c(Br)cc(/C=C/c2ccccc2I)cc1Br", 55),
    ("Oc1c(I)cc(-c2nc3cccc(Cl)c3o2)cc1I", 92),
    ("Oc1c(Br)cc(-c2cccc3oc4ccccc4c23)cc1Br", 36),
    ("Oc1cccc(/C=C/c2cc(Br)c(O)c(Br)c2)c1", 64),
    ("COc1ccccc1CCc1cc(Br)c(O)c(Br)c1", 0),
    ("Oc1c(Br)cc(CCc2c(F)cccc2F)cc1Br", 61),
    ("COc1cccc(OC)c1CCc1cc(Br)c(O)c(Br)c1", 0),
    ("Cc1cccc(C)c1/C=C/c1cc(Br)c(O)c(Br)c1", 42),
    ("Cc1cc(-c2cccc3oc4ccccc4c23)cc(C)c1O", 0),
    ("Nc1cccc(/C=C/c2cc(Br)c(O)c(Br)c2)c1", 0),
    ("Cc1cc(-c2cc(C)c(O)c(C)c2)cc(C)c1O", 11),
    ("Brc1cc(Br)cc(Oc2cccc3oc4ccccc4c23)c1", 0),
    ("COc1ccccc1NC(=O)Nc1cc(Br)c(O)c(Br)c1", 14),
    ("Cc1cccc(CCc2cc(Br)c(O)c(Br)c2)c1", 4),
]

---

Organism: Rattus norvegicus
Assay: Displacement of [125I]-triiodothyronine from thyroid hormone receptor in rat liver membrane homogenates incubated for 18 hrs by scintillation counting method
Assay type: cell membranes
Parameters: concentration or dose not given beside the values
Settings: concentration not given here
Entries get a class label from measured inhibition. See ranges: low bin = under 5%, mid bin = from 5% up to 20%, high bin = 20% and over

# molecule, answer_label
measured = [
    ("O=C(O)c1ccc(C(=O)Nc2cc(Br)cc(Br)c2)cc1", "mid bin"),
    ("Oc1c(I)cc(/C=C/c2c(Cl)cccc2Cl)cc1I", "high bin"),
    ("Nc1ccc(/C=C/c2cc(Br)c(O)c(Br)c2)cc1", "low bin"),
    ("Oc1c(Br)cc(CCc2c(Cl)cccc2Cl)cc1Br", "high bin"),
    ("Nc1ccccc1/C=C/c1cc(Br)c(O)c(Br)c1", "mid bin"),
    ("Cc1cc(-c2nc3c([N+](=O)[O-])cccc3o2)cc(C)c1O", "mid bin"),
    ("O=[N+]([O-])c1ccccc1CCc1cc(Br)c(O)c(Br)c1", "low bin"),
    ("Cc1cc(C)cc(Nc2cccc3oc4ccccc4c23)c1", "low bin"),
    ("O=[N+]([O-])c1ccccc1S(=O)(=O)Nc1cc(Cl)c(O)c(Cl)c1", "mid bin"),
    ("COc1ccccc1C(=O)Nc1cc(Br)cc(Br)c1", "mid bin"),
    ("Oc1c(Br)cc(/C=C/c2c(Cl)cccc2Cl)cc1Br", "high bin"),
]

---

Species on record: Rattus norvegicus
Test: Displacement of [125I]-triiodothyronine from thyroid hormone receptor in rat liver membrane homogenates incubated for 18 hrs by scintillation counting method
Type: cell membranes
Design: concentration or dose not given beside the values
Conditions: concentration not given here

# molecule, inhibition (%)
data = [
    ("Oc1c(Br)cc(/C=C/c2ccccc2Br)cc1Br", 69),
    ("COc1cccc(OC)c1/C=C/c1cc(Br)c(O)c(Br)c1", 0),
    ("Cc1cc(C)cc(-c2cccc3oc4ccccc4c23)c1", 2),
    ("Cc1cc(/C=C/c2c(Cl)cccc2Cl)cc(C)c1O", 41),
    ("COc1ccccc1/C=C/c1cc(Br)c(O)c(Br)c1", 32),
    ("COc1ccc(/C=C/c2cc(Br)c(O)c(Br)c2)cc1", 16),
    ("Nc1ccc(CCc2cc(Br)c(O)c(Br)c2)cc1", 0),
    ("Nc1ccc(/C=C/c2cc(Br)c(N)c(Br)c2)cc1", 0),
    ("Oc1c(Br)cc(/C=C/c2ccccc2C(F)(F)F)cc1Br", 69),
    ("Oc1c(Br)cc(/C=C/c2c(Br)cccc2Br)cc1Br", 35),
    ("Cc1cc(C)cc(/C=C/c2cc(Br)c(O)c(Br)c2)c1", 20),
    ("O=C(O)c1ccc2nc(-c3cc(Cl)cc(Cl)c3)oc2c1", 0),
]

---

Measured inhibition accompanies every entry in the list below.
Species on record: Rattus norvegicus
Experiment: Displacement of [125I]-triiodothyronine from thyroid hormone receptor in rat liver membrane homogenates incubated for 18 hrs by scintillation counting method
Type: cell membranes
Design: concentration or dose not given beside the values
Settings: concentration not given here
recorded_endpoint: inhibition

# molecule, result
rows = [
    ("Nc1cccc(/C=C/c2cc(Br)c(N)c(Br)c2)c1", "3%"),
    ("Nc1cccc(CCc2cc(Br)c(O)c(Br)c2)c1", "0%"),
    ("Clc1cccc(Cl)c1COc1cc(Br)cc(Br)c1", "4%"),
    ("O=[N+]([O-])c1ccccc1COc1cc(Br)cc(Br)c1", "0%"),
    ("Oc1c(Br)cc(CCc2cccc(F)c2)cc1Br", "19%"),
    ("O=[N+]([O-])c1ccccc1/C=C/c1cc(Br)c(O)c(Br)c1", "21%"),
    ("Brc1cc(Br)cc(-c2cccc3oc4ccccc4c23)c1", "0%"),
    ("Oc1cc(O)cc(/C=C/c2cc(Br)c(O)c(Br)c2)c1", "66%"),
    ("COc1cccc(OC)c1/C=C/c1cc(Br)c(N)c(Br)c1", "2%"),
    ("Oc1ccccc1/C=C/c1cc(Br)c(O)c(Br)c1", "22%"),
    ("COc1cccc(/C=C/c2cc(Br)c(O)c(Br)c2)c1", "0%"),
    ("Cc1cc(C)cc(Oc2cccc3oc4ccccc4c23)c1", "0%"),
]

---

Species: Rattus norvegicus
Experiment: Displacement of [125I]-triiodothyronine from thyroid hormone receptor in rat liver membrane homogenates assessed as relative T3 displacement incubated for 18 hrs by scintillation counting method relative to control
Format: cell membranes
Entries get a class label from measured relative binding affinity (RBA). See ranges: lower range (below 0.02), middle range (0.02 to below 0.2), upper range (0.2 or more)

# molecule, answer_label
rows = [
    ("COc1cccc(/C=C/c2cc(Br)c(O)c(Br)c2)c1", "lower range"),
    ("Nc1cccc(CCc2cc(Br)c(O)c(Br)c2)c1", "lower range"),
    ("Oc1ccc(/C=C/c2cc(Br)c(O)c(Br)c2)cc1", "upper range"),
    ("Cc1cccc(/C=C/c2cc(Br)c(O)c(Br)c2)c1", "upper range"),
    ("Cc1cccc(C)c1CCc1cc(Br)c(O)c(Br)c1", "middle range"),
    ("COc1cccc(/C=C/c2cc(Br)c(N)c(Br)c2)c1", "lower range"),
    ("Clc1cccc(Cl)c1COc1cc(Br)cc(Br)c1", "middle range"),
    ("O=[N+]([O-])c1ccccc1/C=C/c1cc(Br)c(O)c(Br)c1", "upper range"),
    ("Oc1c(Br)cc(/C=C/c2cccc(I)c2)cc1Br", "upper range"),
]
